- target or system: Muscarinic acetylcholine receptor M2 (Homo sapiens)
- assay procedure: Cooperativity with NMS at human muscarinic acetylcholine receptor M2
Item-by-item account of Cooperativity
Quick one: just the number, no unit, thanks!

Here is how some compounds turned out for Cooperativity.
Input: Could you share which Cooperativity value was measured for C#CC[N+]12CC[C@@]34c5ccccc5N5C(=O)C[C@@H]6OCC=C(C1)[C@H](C[C@@H]32)[C@@H]6[C@H]54 (some centres not stated) ?
Output: 2

Input: Same question, COc1cc2c(cc1OC)[C@@]13CCN4CC5=CCO[C@H]6CC(=O)N2[C@H]1[C@H]6[C@H]5C[C@H]43 this time
Output: 2

Moving on to the next compound.
Input: Could you share which Cooperativity value was measured for COc1cc2c(cc1OC)[C@@]13CC[N+]4(N)CC5=CCO[C@H]6CC(=O)N2[C@H]1[C@H]6[C@H]5C[C@@H]34 (some centres not stated) ?
Output: 2

----------
Item-by-item account of Affinity
- target or system: Muscarinic acetylcholine receptor M3 (Homo sapiens) (UniProt P20309)
- Sequence (P20309 whole entry, looked up): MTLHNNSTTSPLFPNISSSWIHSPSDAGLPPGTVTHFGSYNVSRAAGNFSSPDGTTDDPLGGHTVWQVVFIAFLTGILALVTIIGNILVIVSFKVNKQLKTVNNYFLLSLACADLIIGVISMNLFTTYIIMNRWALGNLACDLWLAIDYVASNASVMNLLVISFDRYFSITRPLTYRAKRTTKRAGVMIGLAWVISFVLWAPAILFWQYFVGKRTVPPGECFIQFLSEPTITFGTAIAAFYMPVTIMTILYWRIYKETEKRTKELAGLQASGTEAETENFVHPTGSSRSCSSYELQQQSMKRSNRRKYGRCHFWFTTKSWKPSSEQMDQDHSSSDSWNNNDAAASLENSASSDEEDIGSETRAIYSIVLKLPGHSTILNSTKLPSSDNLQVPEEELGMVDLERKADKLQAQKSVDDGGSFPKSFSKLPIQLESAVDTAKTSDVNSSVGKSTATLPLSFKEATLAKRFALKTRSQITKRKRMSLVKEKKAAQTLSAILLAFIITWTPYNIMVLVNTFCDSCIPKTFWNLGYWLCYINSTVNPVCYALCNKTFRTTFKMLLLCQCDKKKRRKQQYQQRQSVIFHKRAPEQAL
- assay procedure: Binding affinity at the NMS liganded human muscarinic acetylcholine receptor M3 was estimated as log affinity (log1/M)

Here is how some compounds turned out for Affinity.
Input: Could you share which Affinity value was measured for O=C1C[C@@H]2OCC=C3C[N+]4(Cc5ccccc5)CC[C@]56c7ccccc7N1[C@H]5[C@H]2[C@H]3C[C@@H]64 (stereo not given in full) ?
Output: 5.3

Input: Same question, C[N+]12CC[C@@]34c5ccccc5N5C(=O)C[C@@H]6OCC=C(C1)[C@H](C[C@@H]32)[C@@H]6[C@H]54 (stereo not given in full) this time
Output: 4.1

More entries:
Input: Could you share which Affinity value was measured for COc1cc2c(cc1OC)[C@@]13CCN4CC5=CCO[C@H]6CC(=O)N2[C@H]1[C@H]6[C@H]5C[C@H]43 ?
Output: 2.9

Input: Same question, CCC[N+]12CC[C@@]34c5ccccc5N5C(=O)C[C@@H]6OCC=C(C1)[C@H](C[C@@H]32)[C@@H]6[C@H]54 (stereo not given in full) this time
Output: 4.5

Input: Same question, COc1cc2c(cc1OC)[C@@]13CC[N+]4([O-])CC5=CCO[C@H]6CC(=O)N2[C@H]1[C@H]6[C@H]5C[C@@H]34 (stereo not given in full) this time
Output: 2.8

----------
- target or system: Muscarinic acetylcholine receptor M4 (Homo sapiens) (UniProt P08173)
- Sequence (whole entry): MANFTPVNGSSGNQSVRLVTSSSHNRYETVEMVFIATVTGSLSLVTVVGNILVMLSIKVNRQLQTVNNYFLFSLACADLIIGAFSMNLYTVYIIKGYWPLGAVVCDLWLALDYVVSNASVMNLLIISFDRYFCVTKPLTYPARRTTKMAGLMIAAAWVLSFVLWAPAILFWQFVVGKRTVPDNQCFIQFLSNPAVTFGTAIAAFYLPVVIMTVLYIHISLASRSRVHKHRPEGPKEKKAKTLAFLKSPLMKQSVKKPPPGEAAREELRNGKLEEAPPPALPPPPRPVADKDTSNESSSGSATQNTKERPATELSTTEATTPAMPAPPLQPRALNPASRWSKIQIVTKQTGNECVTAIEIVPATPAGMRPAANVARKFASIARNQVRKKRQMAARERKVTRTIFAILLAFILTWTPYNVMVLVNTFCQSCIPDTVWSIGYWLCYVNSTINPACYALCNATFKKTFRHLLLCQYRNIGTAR
- assay procedure: Binding affinity at the unliganded human muscarinic acetylcholine receptor M4 was estimated as log affinity (log1/M)
value type: Affinity
Quick one: just the number, no unit, thanks!

Here is how some molecules turned out for Affinity.
Input: Could you share which Affinity value was measured for COc1cc2c(cc1OC)[C@@]13CCN4CC5=CCO[C@H]6CC(=O)N2[C@H]1[C@H]6[C@H]5C[C@H]43 ?
Output: 4.8

Input: Same question, O=C1C[C@@H]2OCC=C3C[N+]4(CCc5ccccc5)CC[C@]56c7ccccc7N1[C@H]5[C@H]2[C@H]3C[C@@H]64 (some centres not stated) this time
Output: 5.2

Input: Same question, CC[N+]12CC[C@@]34c5ccccc5N5C(=O)C[C@@H]6OCC=C(C1)[C@H](C[C@@H]32)[C@@H]6[C@H]54 (some centres not stated) this time
Output: 4.3

Moving on to the next molecule.
Input: Could you share which Affinity value was measured for COc1cc2c(cc1OC)[C@@]13CC[N+]4(CCl)CC5=CCO[C@H]6CC(=O)N2[C@H]1[C@H]6[C@H]5C[C@@H]34 (some centres not stated) ?
Output: 4.3

----------
- target or system: Muscarinic acetylcholine receptor M1 (Homo sapiens) (UniProt P11229)
- Sequence (whole entry): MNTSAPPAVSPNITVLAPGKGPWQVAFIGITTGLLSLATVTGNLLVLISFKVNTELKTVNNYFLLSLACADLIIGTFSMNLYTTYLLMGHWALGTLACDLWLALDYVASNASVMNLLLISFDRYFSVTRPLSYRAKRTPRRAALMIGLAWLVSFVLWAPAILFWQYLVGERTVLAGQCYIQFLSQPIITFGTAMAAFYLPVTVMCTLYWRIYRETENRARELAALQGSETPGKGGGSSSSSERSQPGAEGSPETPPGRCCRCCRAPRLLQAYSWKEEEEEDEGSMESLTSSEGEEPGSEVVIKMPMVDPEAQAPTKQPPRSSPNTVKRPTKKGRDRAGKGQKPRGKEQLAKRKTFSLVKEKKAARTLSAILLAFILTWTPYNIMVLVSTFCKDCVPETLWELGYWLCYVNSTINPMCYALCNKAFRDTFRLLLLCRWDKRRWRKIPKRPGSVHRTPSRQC
- assay procedure: Cooperativity with acetylcholine at human muscarinic acetylcholine receptor M1
Item-by-item account of Cooperativity
Quick one: just the number, no unit, thanks!

Input: Short answer please: Cooperativity, Muscarinic acetylcholine receptor M1 (Homo sapiens) (UniProt P11229), entry O=C1C[C@@H]2OCC=C3C[N+]4([O-])CC[C@]56c7ccccc7N1[C@H]5[C@H]2[C@H]3C[C@@H]64 (stereo partly drawn)
Output: 0.8

Moving on to the next molecule.
Input: Short answer please: Cooperativity, Muscarinic acetylcholine receptor M1 (Homo sapiens) (UniProt P11229), entry C=CC[N+]12CC[C@@]34c5cc(OC)c(OC)cc5N5C(=O)C[C@@H]6OCC=C(C1)[C@H](C[C@@H]32)[C@@H]6[C@H]54 (stereo partly drawn)
Output: 0.8

----------
- target or system: UniProt:P08172
- assay procedure: Cooperativity with NMS at human muscarinic acetylcholine receptor M2
value type: Cooperativity

Here is how some compounds turned out for Cooperativity.
Input: Could you share which Cooperativity value was measured for O=C1C[C@@H]2OCC=C3C[N+]4(CCc5ccccc5)CC[C@]56c7ccccc7N1[C@H]5[C@H]2[C@H]3C[C@@H]64 (some centres not stated) ?
Output: > 2

Input: Same question, COc1cc2c(cc1OC)[C@@]13CC[N+]4(Cc5ccccc5)CC5=CCO[C@H]6CC(=O)N2[C@H]1[C@H]6[C@H]5C[C@@H]34 (some centres not stated) this time
Output: > 2

Input: Same question, COc1cc2c(cc1OC)[C@@]13CC[N+]4([O-])CC5=CCO[C@H]6CC(=O)N2[C@H]1[C@H]6[C@H]5C[C@@H]34 (some centres not stated) this time
Output: > 2

Input: Same question, N[N+]12CC[C@@]34c5ccccc5N5C(=O)C[C@@H]6OCC=C(C1)[C@H](C[C@@H]32)[C@@H]6[C@H]54 (some centres not stated) this time
Output: > 2

Input: Same question, O=C1C[C@@H]2OCC=C3C[N+]4(Cc5cccc([N+](=O)[O-])c5)CC[C@]56c7ccccc7N1[C@H]5[C@H]2[C@H]3C[C@@H]64 (some centres not stated) this time
Output: > 2

More entries:
Input: Could you share which Cooperativity value was measured for C=CC[N+]12CC[C@@]34c5cc(OC)c(OC)cc5N5C(=O)C[C@@H]6OCC=C(C1)[C@H](C[C@@H]32)[C@@H]6[C@H]54 (some centres not stated) ?
Output: 2

Input: Same question, CCC[N+]12CC[C@@]34c5ccccc5N5C(=O)C[C@@H]6OCC=C(C1)[C@H](C[C@@H]32)[C@@H]6[C@H]54 (some centres not stated) this time
Output: 2

----------
- target or system: Muscarinic acetylcholine receptor M2 (Homo sapiens) (UniProt P08172)
- Sequence (P08172 whole entry): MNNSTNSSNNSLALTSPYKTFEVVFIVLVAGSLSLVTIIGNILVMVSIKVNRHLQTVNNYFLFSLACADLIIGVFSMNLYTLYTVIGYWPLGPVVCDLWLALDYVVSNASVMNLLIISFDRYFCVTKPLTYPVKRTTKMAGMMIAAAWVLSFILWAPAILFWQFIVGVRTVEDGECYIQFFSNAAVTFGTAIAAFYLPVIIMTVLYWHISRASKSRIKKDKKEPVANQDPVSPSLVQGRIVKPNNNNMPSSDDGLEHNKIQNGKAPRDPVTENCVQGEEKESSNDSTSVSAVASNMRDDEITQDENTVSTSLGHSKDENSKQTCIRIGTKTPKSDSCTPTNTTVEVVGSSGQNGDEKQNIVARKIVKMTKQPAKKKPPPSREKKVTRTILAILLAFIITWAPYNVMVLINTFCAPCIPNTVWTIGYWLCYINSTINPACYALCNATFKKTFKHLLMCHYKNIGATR
- assay procedure: Cooperativity with acetylcholine at human muscarinic acetylcholine receptor M2
value type: Cooperativity

Here is how some compounds turned out for Cooperativity.
Input: Could you share which Cooperativity value was measured for O=C1C[C@@H]2OCC=C3CN4CC[C@]56c7ccccc7N1[C@H]5[C@H]2[C@H]3C[C@H]46 ?
Output: < 0.2

Input: Same question, C=CC[N+]12CC[C@@]34c5cc(OC)c(OC)cc5N5C(=O)C[C@@H]6OCC=C(C1)[C@H](C[C@@H]32)[C@@H]6[C@H]54 (some centres not stated) this time
Output: 0.8

Input: Same question, O=C1C[C@@H]2OCC=C3C[N+]4(Cc5ccc([N+](=O)[O-])cc5)CC[C@]56c7ccccc7N1[C@H]5[C@H]2[C@H]3C[C@@H]64 (some centres not stated) this time
Output: < 0.2

Input: Same question, O=C1C[C@@H]2OCC=C3C[N+]4(Cc5ccc6ccccc6c5)CC[C@]56c7ccccc7N1[C@H]5[C@H]2[C@H]3C[C@@H]64 (some centres not stated) this time
Output: < 0.2

More entries:
Input: Could you share which Cooperativity value was measured for O=C1C[C@@H]2OCC=C3C[N+]4(CCc5ccccc5)CC[C@]56c7ccccc7N1[C@H]5[C@H]2[C@H]3C[C@@H]64 (some centres not stated) ?
Output: < 0.2

Input: Same question, CCC[N+]12CC[C@@]34c5ccccc5N5C(=O)C[C@@H]6OCC=C(C1)[C@H](C[C@@H]32)[C@@H]6[C@H]54 (some centres not stated) this time
Output: < 0.2

Input: Same question, O=C1C[C@@H]2OCC=C3C[N+]4([O-])CC[C@]56c7ccccc7N1[C@H]5[C@H]2[C@H]3C[C@@H]64 (some centres not stated) this time
Output: 0.8
